Tested on: M14
Assay: NCI tumour cell line growth inhibition, 48 h
Active and inactive are the calls of the source. Cut-off read from the data, not from the text of the source: active = GI50 up to about 1.1 µM and inactive = higher.
GI50 by entry:

Here is how some molecules turned out for GI50.
Molecule: CC1=C(C(=O)Nc2ccc(C)cc2)C(c2cccc([N+](=O)[O-])c2)C(C(=O)Nc2ccc(C)cc2)=C(C)N1
Obs Value: 16.9 µM (inactive)
--
Molecule: N#CC1(c2nc3ccccc3o2)C(=O)C(=O)N(c2ccc(Cl)c(Cl)c2)C(=O)C1=O
Obs Value: > 100 µM (inactive)
--
Molecule: CC1=CC(=O)CC(C)(C)C1/C=C/C(C)=C/C=C/C(C)=C/C=C/C=C(C)/C=C/C=C(C)/C=C/C1C(C)=CC(=O)CC1(C)C (centres undefined)
Obs Value: 40.4 µM (inactive)
--
Molecule: Cn1c(=O)c2c(nc3n(CC(O)CCl)c(=O)ccn23)n(C)c1=O (centres undefined)
Obs Value: 52.7 µM (inactive)
--
Molecule: O=C1c2cccc3cc([N+](=O)[O-])cc(c23)C(=O)N1O
Obs Value: 39.2 µM (inactive)

Entry O=c1oc2ccccc2cc1-c1nc2ccccc2s1 : reported GI50 = ?
16.5 µM (inactive)

Entry CCOC(=O)c1nc2ccccc2nc1Nc1ccc(Cl)c(Cl)c1 : reported GI50 = ?
57.8 µM (inactive)

Entry CCCCc1c2c(nc3c1CCc1cc4c(nc1-3)-c1nc3c(c(CCCC)c1CC4)CCC/C3=C\c1ccccc1)/C(=C/c1ccccc1)CCC2 : reported GI50 = ?
> 100 µM (inactive)

Entry O=c1[nH]nc(Cc2ccccc2)n1/N=C/c1c[nH]c2ccccc12 : reported GI50 = ?
> 100 µM (inactive)

====

System: HOP-62
Assay: NCI tumour cell line growth inhibition, 48 h
Active and inactive are the calls of the source. Cut-off read from the data, not from the text of the source: active = GI50 up to about 1.1 µM and inactive = higher.
Please answer using one outcome listed in class 1 = active, class 0 = inactive

Compound: NCCNCc1c2ccccc2c(CNCCN)c2ccccc12
Study System: HOP-62
Class: class 0

Check the results log: what was the call for COc1ccc2nc(NC(=O)C(=O)NNC(=O)c3ccncc3)sc2c1 ?
class 0

Check the results log: what was the call for COc1c(Cl)c2c(c(OC)c1OC)-c1ccc(OC)c(=O)c(Cl)c1C(NC(C)=O)CC2 (stereo unspecified) ?
class 1

Check the results log: what was the call for O=CN1CCN(C(=O)c2cc(Cl)cc(Cl)c2)C1=S ?
class 0

Check the results log: what was the call for Cn1c2c(c3ccccc31)CC1c3c(c4ccccc4n3C)CC21 (stereo unspecified) ?
class 0

Check the results log: what was the call for COc1cc(C(=O)N2CCc3c([nH]c4c([N+](=O)[O-])c(OC)ccc34)C2C)cc(OC)c1OC (stereo unspecified) ?
class 0

====

System: SN12C
Test: NCI tumour cell line growth inhibition, 48 h
The source made the active and inactive calls. Cut-off read from the data, not from the text of the source: active = GI50 up to about 1.1 µM and inactive = higher.
Measured Metric: GI50

Compound: Cn1c(=O)c2nc(CCCCc3nc4ccccc4[nH]3)[nH]c2n(C)c1=O
Measured Metric: GI50
Obs Value: > 100 µM (inactive)

Form: Entry = COC(=O)c1c(C)cccc1C1CN=NC12Cc1cc(C)c(C)cc1C2=O (stereo not given) | System = SN12C | GI50 = ____
75.3 µM (inactive)

Form: Entry = O=[N+]([O-])c1cc(-[n+]2cc([O-])on2)ccc1Cl | System = SN12C | GI50 = ____
16.3 µM (inactive)

Form: Entry = CCOC(=O)C1C(=O)c2ccccc2CN1Cc1ccccc1 (stereo not given) | System = SN12C | GI50 = ____
> 100 µM (inactive)

Form: Entry = COC(=O)C(Cc1ccccc1)OC(=O)C(N)CC(=O)O (stereo not given) | System = SN12C | GI50 = ____
> 100 µM (inactive)

Form: Entry = CC(=N\N=C\c1ccccn1)/C(C)=N/N=C(C)/C(C)=N/N=C(C)/C(C)=N/N=C/c1ccccn1 | System = SN12C | GI50 = ____
> 100 µM (inactive)

====

Test system: RPMI-8226
Assay: NCI tumour cell line growth inhibition, 48 h
Calls of active or inactive are those of the source. Cut-off read from the data, not from the text of the source: active = GI50 up to about 1.1 µM and inactive = higher.
Please answer using one outcome listed in class 1 (active), class 0 (inactive)

Observe how each entry below is paired with its result.
Compound: CC(C)C1=Cc2ccc3c(c2C(=O)C1=O)CCCC3
Study System: RPMI-8226
Class: class 0

Compound: COc1ccc(NC(=O)CC(=O)NN2C(=O)/C(=C/c3ccc(N(CCC#N)CCC#N)cc3C)N=C2/C=C\c2ccccc2)cc1
Study System: RPMI-8226
Class: class 0

Compound: CCCCCCCCCc1cc(=O)c2ccc(O)cc2o1
Study System: RPMI-8226
Class: class 0

Compound: O=S1(=O)c2ccccc2C(Nc2ccccc2)N1c1ccccc1 (stereo unspecified)
Study System: RPMI-8226
Class: class 0

Compound: C[C@H]1[C@H](C)CC[C@]2(C)CC[C@]3(C)C(=C[C@@H](O)[C@@H]4[C@@]5(C)[C@H](O)[C@@H](O)[C@H](O)C(C)(C)[C@@H]5CC[C@]43C)[C@H]12
Study System: RPMI-8226
Class: class 0

Check the results log: what was the call for COC(=O)C1=C(c2ccc3c(c2)OCO3)OC(c2ccc3c(c2)OCO3)C1 (stereo unspecified) ?
class 0

Check the results log: what was the call for COc1cc(C)c(C)c(OC(=O)c2c(C)c(C)c(OC)c(C)c2OC)c1C ?
class 0

====

Tested on: SK-MEL-28
Test: NCI tumour cell line growth inhibition, 48 h
Active and inactive are the calls of the source. No stated cut-off is given here; in the data, active = GI50 up to about 1.1 µM and inactive = higher.
Measured Metric: GI50

Here is how some compounds turned out for GI50.
Compound: CCOC(=O)N[C@@H]1C2CC(=O)C(O2)[C@@H]1OC (stereo partly drawn)
GI50: 7.08 µM (inactive)
//
Compound: CC(C)OP(=O)(OC(C)C)/C(=N/Nc1ccc([N+](=O)[O-])cc1)NCCN/C(=N\Nc1ccc([N+](=O)[O-])cc1)P(=O)(OC(C)C)OC(C)C
GI50: 31.3 µM (inactive)

Form: Entry = O=C1c2ccccc2NC1(c1ccccc1)c1c(-c2ccccc2)[nH]c2ccccc12 (stereo not drawn) | System = SK-MEL-28 | GI50 = ____
37.5 µM (inactive)

Form: Entry = COc1cc(/C=C2\CCc3cc(OC)c(OC)cc3C2=O)cc(OC)c1 | System = SK-MEL-28 | GI50 = ____
15.8 µM (inactive)

====

Test system: Malme-3M
Assay: NCI tumour cell line growth inhibition, 48 h
Counter-ions that a name gives are not always drawn. Calls of active or inactive are those of the source. Rule as the data show it: active = GI50 up to about 1.1 µM and inactive = higher.
Please answer using one outcome listed in active, inactive

Observe how each entry below is paired with its result.
Compound: Cc1c(Cl)ccc2c1NC(=O)C2(O)CC(=O)c1ccc(Cl)cc1 (stereo unspecified)
Class: inactive
--
Compound: CC1(C)C(=O)/C(=C/c2ccccc2)C(C)(C)C1(C)C
Class: inactive
--
Compound: CC(C)(CCc1nc2ccccc2[nH]1)C(=O)O
Class: inactive
--
Compound: Oc1cc(-c2cccs2)nc2cc3c(cc12)OCO3
Class: inactive

Check the results log: what was the call for Nc1nc(Cl)cc(NCCCCO)n1 ?
inactive

Check the results log: what was the call for CCOC(=O)N[C@@H]1C2CC(=O)C(O2)[C@@H]1OC (stereo partly specified) ?
inactive

Check the results log: what was the call for O=S(O)CCCCCSSc1ccccc1 ?
inactive

Check the results log: what was the call for C=CC1=C(C)c2cc3[nH]c(c4c5nc(cc6[nH]c(cc1n2)c(C)c6CC)C(C)=C5C(=O)[C@@H]4C(=O)OC)[C@@H](CCC(=O)O)[C@@H]3C ?
inactive

Check the results log: what was the call for Cc1ccc(O)c(-c2cc(-c3ccccc3)nc(/N=C\c3ccccc3)n2)c1 ?
inactive

Check the results log: what was the call for Nc1ccc(N)c2c1C(=O)c1c(N)ccc(N)c1C2=O ?
inactive

Check the results log: what was the call for COc1ccc2c(c1)CC[C@@H]1C2CC[C@]2(C)C(=O)N(C)C(=O)CC12 (stereo partly specified) ?
inactive

Check the results log: what was the call for C=C1C(O)C2(O)OCC34C(CC5C(C)=CC(=O)C(O)C5(C)C23)OC(=O)C(OC(=O)C/C=C/CCCCCCCC)C14 (stereo unspecified) ?
active

Check the results log: what was the call for O=C(OCCN1CCCCCC1)C(c1ccsc1)C1CCCCC1 (stereo unspecified) [CETIEDIL CITRATE] ?
inactive

Check the results log: what was the call for Cc1cc(C(=O)CBr)c(CN2C(=O)c3ccccc3C2=O)c(=O)n1C ?
inactive

Check the results log: what was the call for CC(C)(C)c1nc2c(o1)/C(=N\c1ccccc1)c1ccccc1C2=O ?
inactive

Check the results log: what was the call for Cn1c(=O)nc2n(-c3cc(C(F)(F)F)cc(C(F)(F)F)c3)c3ccccc3nc-2c1=O ?
inactive

Check the results log: what was the call for COc1c2c(cc3nc4ccccc4nc13)CCC(C(C)(C)O)C2 (stereo unspecified) ?
inactive

Check the results log: what was the call for O=CN1CCN(C(=O)c2cc(Cl)cc(Cl)c2)C1=S ?
inactive

Check the results log: what was the call for O=C1c2cnccc2Cc2cccc3c2N1c1ccccc1S3 ?
inactive

Check the results log: what was the call for O=C1C2C3C=CC(C2C(=O)N1CN1CCOCC1)C1C2C(=O)N(CN4CCOCC4)C(=O)C2C31 (stereo unspecified) ?
inactive

Check the results log: what was the call for CN(C)CCn1c(=O)c2ccc(NCCCN(C)CCCNc3ccc4c(=O)n(CCN(C)C)c(=O)n5c6ccc(O)cc6c(=O)c3c45)c3c(=O)c4cc(O)ccc4n(c1=O)c23 ?
active

Check the results log: what was the call for CCOC(=O)C(=O)Nc1cc(Cl)c(Cl)cc1Cl ?
inactive

Check the results log: what was the call for COc1ccc(OC)c(-c2cc(O)c3cc4c(cc3n2)OCO4)c1 ?
inactive

Check the results log: what was the call for C[C@]12CC[C@H](O)CC1=CC[C@@H]1C2CC[C@]2(C)c3n[nH]nc3CC12 (stereo partly specified) ?
inactive

Check the results log: what was the call for O=[N+]([O-])c1cc(-[n+]2cc([O-])on2)ccc1Cl ?
inactive
